# System: MOLT-4 leukemia
# assay: NCI tumour cell line growth inhibition, 48 h
Each entry below carries its reported TGI.

Example entries begin here.
N#C/C(=C\c1ccccc1O)C(N)=O = > 100 µM
COc1cc(C(=O)OCCCCCCCCCCC[P+](c2ccccc2)(c2ccccc2)c2ccccc2)ccc1O = 4.31 µM
Nc1nc(Cl)cc(NCC2(O)CC(CO)C2)n1 (centres undefined) = > 100 µM
O=C1c2ccccc2C(=O)N1n1c(Cc2ccccc2)n[nH]c1=O = > 100 µM

Write down TGI measured for item C=C(C)[C@@H]1CC[C@]2(C(=O)O)CC[C@]3(C)[C@H](CC[C@@H]4[C@@]5(C)CC(=O)C(C)(C)[C@@H]5CC[C@]43C)[C@@H]12
14.5 µM

Read the entry CCCNC1CC(n2cc(C)c(=O)[nH]c2=O)OC1CO (centres undefined) and write its reported TGI.
> 100 µM

State its TGI: FC(F)(F)c1ccc(-c2nc(-c3nc4cc(Cl)c(Cl)cc4[nH]3)c3ccccn23)cc1
> 100 µM

In one line, give reported TGI of the entry Cc1c2cc(Cl)ccc2n2c(=O)c3ccccc3[nH]c(=O)c12 .
> 100 µM

# return recorded TGI for entry CO/C(=N\N=C\c1cc(OC)ccc1OC)c1ccncc1
> 10 µM

---

# Tested on: OVCAR-8 ovarian
# assay: NCI tumour cell line growth inhibition, 48 h; in the data active = GI50 below about 0.43 µM; inactive = the rest
Hi there, use one of these labels in your reply, thanks! TRUE = active, FALSE = inactive

Use the examples below as a reference point.
Cc1cc(C)nc(NC(N)=NCCc2ccccc2)n1 = FALSE
FC(F)(F)c1ccc(-c2nc(-c3nc4cc(Cl)c(Cl)cc4[nH]3)c3ccccn23)cc1 = FALSE
Cc1ccccc1NC(=S)Nc1ccccn1 = FALSE

Now let's try a different one.
Hello, I am checking results. What call was entered for Cc1ccc(C(=O)N(CCCN)[C@@H](c2nc3cc(Cl)ccc3c(=O)n2Cc2ccccc2)C(C)C)cc1 ?
TRUE

---

# System: DU-145 prostate
# assay: NCI tumour cell line growth inhibition, 48 h
measurement.type: TGI

O=C(c1ccccc1)c1c(NCC(O)CN2CCCC2)n(Cc2ccccc2)c(=O)n(Cc2ccccc2)c1=O (stereo not drawn) = 34.7 µM
Cc1[nH]c2ncn(/N=C/c3ccccc3O)c(=N)c2c1Cc1ccccc1 = > 100 µM
c1csc(-c2ccc(-c3ccc(-c4ccc(-c5cccs5)s4)s3)s2)c1 = > 100 µM
CC(C)=CCN=C(N)N = > 100 µM
COc1cc(-c2nn3c(/C=C4/C(=O)Nc5ccccc54)c(-c4ccc(C)cc4)nc3s2)cc(OC)c1OC = > 100 µM
CC1=NN(c2nc(N)nc(-c3ccccc3S(N)(=O)=O)n2)C(C)(C)C1 = > 100 µM
Cc1ccc(S(=O)(=O)N/N=C/c2oc(-c3cccc([N+](=O)[O-])c3)c(-c3cccc([N+](=O)[O-])c3)c2[N+](=O)[O-])cc1 = > 100 µM
Cc1c2cc[nH]c(=O)c2c(C)c2c1[nH]c1cc(OCCN3CCN(C)CC3)ccc12 = 8.97 µM
O=c1cc(CNC2CCCC2)[nH]c(=O)[nH]1 = > 100 µM
CN(C)CCCOc1ccccc1NC1=C(Cl)C(=O)C(Nc2ccccc2OCCCN(C)C)=C(Cl)C1=O = 1.77 µM

Quickly give me recorded TGI for CCOC(=O)c1ccc(N=NN(C)C(=O)C(C)N)cc1 (stereo not drawn)
> 100 µM

Tell us which TGI value is on record for COCOc1ccc(C(=O)C(C)c2ccc(OCOC)cc2OCOC)c(O)c1 (stereo not drawn)
> 100 µM

Supply reported TGI belonging to this compound: CCOc1cc2c(cc1O)/C(=N\N)C[C@@H]1[C@@H]2CC[C@]2(C)[C@@H](O)CC[C@@H]12
> 66.8 µM

---

# System: 786-0 renal
# assay: NCI tumour cell line growth inhibition, 48 h
measurement.type: TGI

Study these solved cases before continuing.
O=C(Cn1c(=O)oc2ccc(C(=O)c3ccc(F)cc3)cc21)c1ccc([N+](=O)[O-])cc1 = > 100 µM
Nc1nc2c(=O)c3ccccc3sc2s1 = > 100 µM
O=C(CSc1nnc(-c2ccc(N=Cc3ccc(Cl)cc3)cc2)o1)Nc1ccccc1Cl = > 100 µM
COC(=O)[C@H](Cc1ccccc1)NC(=O)c1ccc(CNC(=O)/C=C/c2ccc(-c3ccccc3)cc2)cc1 = > 100 µM
CC1=CC2CC(C)=C(CC[C@]3(C)CC[C@H]([C@@H](C)C(=O)O)OO3)C(C)(C)C2CC1 (some centres not stated) = 4.78 µM

// Input: C=C(Cn1c(=O)c2ccccc2c2ccccc21)c1ccc(C(=O)Nc2ccccc2N)cc1 . Output its TGI only.
> 100 µM

Supply measured TGI of CCCCCCCCCCCOC(=S)NC(C)C in your reply.
39.3 µM

---

# Test system: NCI-H460 lung
# assay: NCI tumour cell line growth inhibition, 48 h
Each entry below carries its recorded TGI.

In the examples that follow, each entry is paired with its recorded TGI.
O=C1Oc2ccccc2C(=O)/C1=C/N1C(=O)N/C(=C\c2ccccc2O)C1=O = > 100 µM
COc1cc2c(cc1OC)C13CCN4C=C5CCOC6CC(=O)N2C1C6C5CC43 (stereo unspecified) = > 100 µM
COc1ccc(/C=C2\CN(C)Cc3c2nc(N)nc3-c2ccc(OC)cc2)cc1 = > 100 µM

Output TGI of COc1ccc(-c2nc(N)c(C#N)c3c2CCS(=O)(=O)c2ccc(C)cc2-3)cc1OC
> 100 µM

Look up and state reported TGI for O=C(Nc1c(O)[nH]c(=S)[nH]c1=O)c1ccccn1
> 100 µM

Tell me measured TGI for C=CC(=O)Nc1ccc(Nc2nccc(-c3ccc(N4CCCC4)c(C#N)c3)n2)cc1 please.
> 25 µM

---

Catalogue of TGI values
# Tested on: OVCAR-5 ovarian
# assay: NCI tumour cell line growth inhibition, 48 h

Worked cases, TGI given:
CN(C)c1ccc2c(c1)C(=O)N(OS(=O)(=O)c1ccc([N+](=O)[O-])cc1)C2=O = 57.6 µM
CC(=O)NC1C(OCc2ccccc2)OC(CO)C(O)C1OCC(=O)NC(C)C(=O)NC(CCC(=O)NCCCCNc1ccc([N+](=O)[O-])c2[nH]c3ccccc3c(=O)c12)C(N)=O (stereo not drawn) = > 100 µM
Cc1cccc(C(=O)c2cccc3ccccc23)c1C(=O)O = > 100 µM
COC(=O)[C@@H](NC(=O)NC(=O)NC(=O)CI)C(C)C = 29.7 µM
O=C(O)CCCl = > 5000 µM
Cc1nc2c(=S)[nH]ncc2[nH]1 = > 100 µM

Recall and state the measured TGI for CC(C)(C)OC(=O)NCCNC1=CC(=O)c2nc3ccccc3c3ccnc1c23 .
86.1 µM

Identify TGI associated with the compound CC[n+]1cnc(N)c2c(-c3ccc(Cl)cc3)cn(-c3ccc(C)cc3)c21
29.7 µM

Quick one: give measured TGI for CCOC(=O)c1cccc(NC(=O)CCl)c1
16.9 µM

Using known records, supply TGI for CO/C(=N\N=C\c1cc(OC)ccc1OC)c1ccncc1
> 10 µM

Tell us which TGI value is on record for O=c1cc(CNC2CCCC2)[nH]c(=O)[nH]1
> 100 µM

---

# System: IGROV1 ovarian
# assay: NCI tumour cell line growth inhibition, 48 h
measurement.type: TGI

Below, each entry is followed by its recorded TGI result.
Cc1ccccc1NC(=S)Nc1ccccn1 = > 100 µM
CC[C@@]1(O)C(=O)OCc2c1cc1n(c2=O)Cc2c-1nc1ccccc1c2/C=N\NC(=O)C(N)CC(C)C (stereo partly specified) = > 22 µM
CC(C)=CCN=C(N)N = > 100 µM
O=[As](O)(O)c1ccc(NCc2ccccc2)cc1 = > 100 µM
O=C(NCCCCCCCCNC(=O)c1cnc2ccccc2n1)c1cnc2ccccc2n1 = > 100 µM

Give the reported value of TGI for this record: O=C1N[C@H]2c3c(Cl)sc(Cl)c3/C(=N/O)[C@H]2O1
> 100 µM

For the compound O=C(O)[C@H]1[C@@H](C2CCCCC2)O[C@@H](C2CCCCC2)O[C@H]1C(F)(F)F , give its measured TGI value.
35.9 µM

# return recorded TGI for input Nc1nc(CCC(=O)Nc2cccc(C(F)(F)F)c2)cc(-c2cccc3ccccc23)n1
> 100 µM

Complete the entry with TGI for O=C(Nc1cccc2ccccc12)Oc1ccccc1C1CCCCC1
51.2 µM

Supply recorded TGI for [O-]/[N+](=C\c1ccccc1)[C@H](COCc1ccccc1)c1ccccc1 here.
> 100 µM

Look up and state reported TGI for O=C1c2ccccc2C2(O)Nc3cc(O)ccc3C12O (stereo unspecified)
> 100 µM

Query TGI for O=C1c2ccccc2C2CNC1(O)c1ccccc12 (stereo unspecified)
> 100 µM

Using known records, supply TGI for O=C(Nc1ccc(Cl)cc1Cl)c1ccc(NC2=C(Cl)C(=O)N(Cc3ccccc3)C2=O)cc1
> 100 µM

Identify measured TGI associated with COc1ccc(Cn2c(C)nc3c2C(=O)c2ccccc2C3=O)cc1
38.6 µM

Find the measured TGI of CCC[CH2][Sn]([CH2]CCC)([O]C(=O)c1c(F)cccc1F)[O]C(=O)c1c(F)cccc1F and report it.
3 µM

Name the recorded TGI of the compound listed here: CCCC(=O)O
> 18700 µM

Look up TGI of C=C(C)[C@@]1(O)O[C@H]2C[C@@]3(C)OC(=CC3=O)/C(C)=C\[C@@H]3OC(=O)[C@@]1(C)[C@H]32 and report it.
24.9 µM

Tell me TGI reported for C(=Nc1ccccc1)C1CCCC[N-]1.C(=Nc1ccccc1)C1CCCC[N-]1.[Cu+2].[O-][Cl+3]([O-])([O-])O (stereo unspecified)
47.8 µM

// Input: C=CCC1OC(C)(C)Oc2ccc(OCOCCOC)cc21 (stereo unspecified) . Output its TGI only.
> 100 µM

Could you please provide reported TGI for CCC(C)[C@H](NC(=O)[C@H](Cc1ccccc1)NC(=O)N(CC)c1ccccc1)C(=O)N[C@@H](CC(C)C)C(=O)OC (stereo partly specified) ? Thanks!
61.5 µM

Supply measured TGI of COc1cc(-c2nn3c(/C=C4/C(=O)Nc5ccccc54)c(-c4ccc(C)cc4)nc3s2)cc(OC)c1OC in your reply.
> 100 µM
